The measurements presented in this section are drawn from PubChem BioAssay.

Reported inhibition of aggregation values for a set of compounds
- PROTOCOL_DETAILS: reduction of polyQ htt aggregates in cells – imaging, exon1htt(103Q)mCFP cells, high-content imaging, primary screen (AID 483);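 also: compound exposure lasted 3 days before fixation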
- ASSAY_SETUP: exon1htt(103Q)mCFP cell line, aggregate imaging, at 2 µM; stronger effect = higher value

| COMPOUND | inhibition of aggregation (%) |
| --- | --- |
| COc1ccc(-c2nnn(CCc3nn[nH]n3)n2)cc1OC | 1.4 |
| O=C(c1cc(-c2cccs2)on1)N1CCc2ccccc2C1 | -23.8 |
| COc1ccc(C)cc1S(=O)(=O)N(C)CC(=O)Nc1ccc2c(c1)OCO2 | 8.7 |
| CCCOC(=O)C1[C@H]2C(=O)N(CCCOC)C[C@]23C=C[C@H]1O3 (stereo partly drawn) | -14.9 |
| CCCCNS(=O)(=O)c1ccc(OC)c2ncccc12 | 16.3 |
| COc1ccccc1N(CC(=O)NC1CCCC1)C(=O)CCC(=O)Nc1cc(C)on1 | 10.8 |
| O=C(COc1ccccc1)Nc1ccccc1N1CCN(c2ccccc2)CC1 | -7.4 |
| Cc1cc(NC(=O)CSc2nccn2-c2ccc(Cl)cc2)no1 | -6.1 |
| O=C(O)c1cccc(COCC(F)(F)C(F)F)c1 | 17.2 |
| COC(=O)C(C#N)C(=C1C(=O)CC(C)(C)CC1=O)c1ccc(O)cc1 (stereo not drawn) | 12 |
| COc1ccccc1N(C)S(=O)(=O)c1ccc(C(=O)NC2=NCCS2)cc1 | 9.8 |
| COc1ccccc1NC(=O)CSc1nnc(Cn2nnc(-c3ccccc3)n2)n1-c1ccccc1 | 5.6 |
| NC(=O)CSc1nnc(-c2ccc(O)cc2)n1Cc1ccco1 | 18.6 |
| CCCN1CCN(C(=O)c2cn(CC(C)C)c(=O)c3cc(OC)c(OC)cc23)CC1 | -3.2 |
| Cc1c(Cc2ccccc2)sc(N)c1C(N)=O | -0.8 |
| COc1ccc(NS(=O)(=O)c2coc(C(N)=O)c2)cc1Cl | 24 |
| COCCNC(=O)CSc1nc(-c2ccc(OC)c(OC)c2)cc(C(F)(F)F)n1 | -8.2 |
| Cc1ccc(S(=O)(=O)N(CC(=O)N2CCOCC2)CC(=O)N2CCOCC2)cc1 | -5.6 |
| CCc1ccc2[nH]c(=O)c(C(c3nnnn3CC3CCCO3)N3CCN4CCCC4C3)cc2c1 (stereo not drawn) | -16.9 |
| CN(CC(=O)Nc1ccc(F)c(Cl)c1)S(=O)(=O)c1cccc2nsnc12 | 5.8 |
| COc1ccc(C(C)NC(=O)c2ccoc2C)cc1OC (stereo not drawn) | -2.3 |
| Cc1ccc(-n2c3c(cc(C(=O)O)c2=O)C(=O)CC(C)(C)C3)cc1 | 6.9 |
| COc1ccc(S(=O)(=O)NCc2ccc3c(c2)OCO3)cc1C(=O)O | -1.8 |

###

Reported cell count values for a set of compounds
- PROTOCOL_DETAILS: inhibitors of TNFa-induced NFkB p65 translocation, primary screen, imaging, HUVEC, MLSMR starter and 10KST1 sets (AID 438);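 also: compound added about 3h40 before a 20 min TNFalpha stimulation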
- ASSAY_SETUP: HUVEC TNFa-induced p65 nuclear translocation; measured here: nuclei count (cytotoxicity indicator), at 2.08 µM

| COMPOUND | cell count |
| --- | --- |
| CCCCn1c(SCc2ccc(Cl)cc2)nc2c1c(=O)[nH]c(=O)n2C | 396 |
| COCCN(CC(=O)Nc1ccccc1C)S(=O)(=O)c1ccc(S(=O)(=O)N2CCCC2)cc1 | 404 |
| CCOc1ccc(NC2c3ccccc3C(=O)N2Cc2ccco2)cc1 (stereo not drawn) | 695 |
